Biological target: Melanocortin receptor 4 (Homo sapiens)
Sequence (P32245 whole entry): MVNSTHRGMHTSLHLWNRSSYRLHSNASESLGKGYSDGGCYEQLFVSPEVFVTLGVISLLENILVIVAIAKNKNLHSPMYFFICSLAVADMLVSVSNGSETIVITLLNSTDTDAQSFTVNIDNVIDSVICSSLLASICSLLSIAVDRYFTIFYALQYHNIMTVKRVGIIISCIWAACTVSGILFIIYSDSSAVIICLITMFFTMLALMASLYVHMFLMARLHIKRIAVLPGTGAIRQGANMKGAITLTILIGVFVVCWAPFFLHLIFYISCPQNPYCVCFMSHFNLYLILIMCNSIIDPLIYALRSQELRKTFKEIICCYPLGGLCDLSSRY
Test: Binding affinity towards human melanocortin 4 receptor was determined using [125I]-NDP-alpha-MSH as radioligand transfected in HEK293 human embryonic kidney cells
Type: cell-based
Conditions: read-out: EC50
Readout: binding affinity (radioligand displacement) (nM)

INSERT INTO results (item_smiles, unit_abbrev, value) VALUES
  ('CC(=O)N[C@@H](Cc1cnc[nH]1)C(=O)N[C@H](Cc1ccccc1)C(=O)N[C@@H](CCCNC(=N)N)C(=O)N[C@@H](Cc1c[nH]c2ccccc12)C(=O)NCCC(=O)NCC(=O)NCCC(=O)N[C@@H](Cc1cnc[nH]1)C(=O)N[C@H](Cc1ccccc1)C(=O)N[C@@H](CCCNC(=N)N)C(=O)N[C@@H](Cc1c[nH]c2ccccc12)C(N)=O', 'nM', 143),
  ('CCCC[C@H](NC(C)=O)C(=O)N[C@@H](CCC(=O)O)C(=O)N[C@@H](Cc1c[nH]cn1)C(=O)N[C@H](Cc1ccccc1)C(=O)N[C@@H](CCCN=C(N)N)C(=O)N[C@@H](Cc1c[nH]c2ccccc12)C(=O)NCCOCCOCCNC(=O)CCC(=O)N[C@@H](CCCC)C(=O)N[C@@H](CCC(=O)O)C(=O)N[C@@H](Cc1c[nH]cn1)C(=O)N[C@H](Cc1ccccc1)C(=O)N[C@@H](CCCN=C(N)N)C(=O)N[C@@H](Cc1c[nH]c2ccccc12)C(N)=O', 'nM', 9),
  ('CC(=O)N[C@@H](Cc1cnc[nH]1)C(=O)N[C@H](Cc1ccccc1)C(=O)N[C@@H](CCCNC(=N)N)C(=O)N[C@@H](Cc1c[nH]c2ccccc12)C(=O)Nc1ccc(C(=O)Nc2ccc(C(=O)Nc3ccc(C(=O)N[C@@H](Cc4cnc[nH]4)C(=O)N[C@H](Cc4ccccc4)C(=O)N[C@@H](CCCNC(=N)N)C(=O)N[C@@H](Cc4c[nH]c5ccccc45)C(N)=O)cc3)cc2)cc1', 'nM', 164),
  ('CC(=O)N[C@@H](Cc1c[nH]cn1)C(=O)N[C@H](Cc1ccccc1)C(=O)N[C@@H](CCCN=C(N)N)C(=O)N[C@@H](Cc1c[nH]c2ccccc12)C(=O)N[C@@H](Cc1c[nH]cn1)C(=O)N[C@H](Cc1ccccc1)C(=O)N[C@@H](CCCN=C(N)N)C(=O)N[C@@H](Cc1c[nH]c2ccccc12)C(N)=O', 'nM', 264),
  ('CC(=O)N[C@@H](Cc1c[nH]cn1)C(=O)N[C@H](Cc1ccccc1)C(=O)N[C@@H](CCCN=C(N)N)C(=O)N[C@@H](Cc1c[nH]c2ccccc12)C(=O)Nc1ccc(C(=O)Nc2ccc(C(=O)N[C@@H](Cc3c[nH]cn3)C(=O)N[C@H](Cc3ccccc3)C(=O)N[C@@H](CCCN=C(N)N)C(=O)N[C@@H](Cc3c[nH]c4ccccc34)C(N)=O)cc2)cc1', 'nM', 123),
  ('CC(=O)N[C@@H](Cc1c[nH]cn1)C(=O)N[C@H](Cc1ccccc1)C(=O)N[C@@H](CCCN=C(N)N)C(=O)N[C@@H](Cc1c[nH]c2ccccc12)C(=O)NCCOCCOCCNC(=O)CCC(=O)N[C@@H](Cc1c[nH]cn1)C(=O)N[C@H](Cc1ccccc1)C(=O)N[C@@H](CCCN=C(N)N)C(=O)N[C@@H](Cc1c[nH]c2ccccc12)C(N)=O', 'nM', 234);
